Values compiled from the supplement of paper PMC4862054.

# Tested on: CAL-51
# ASSAY SUMMARY: normalised viability (% of control), CellTiter-Blue; higher = more viable cells (100 = DMSO, 0 = benzethonium chloride kill control)
# EXPERIMENTAL SETUP: incubation time: 72 h
Items are presented alongside their recorded normalised viability.
EXPERIMENTAL ENDPOINT: normalised viability (%)

INSERT INTO measurements (compound, unit_name, quantitative_readout) VALUES
  ('CC(C)(C)NC(=O)[C@H]1CC[C@H]2[C@@H]3CC[C@H]4NC(=O)C=C[C@]4(C)[C@H]3CC[C@]12C [Finasteride] (1 nM)', '%', 108),
  ('CO[C@@H]1[C@H](N(C)C(=O)c2ccccc2)C[C@H]2O[C@]1(C)n1c3ccccc3c3c4c(c5c6ccccc6n2c5c31)C(=O)NC4 [Midostaurin] (1 nM)', '%', 96.4),
  ('CC(O)(CS(=O)(=O)c1ccc(F)cc1)C(=O)Nc1ccc(C#N)c(C(F)(F)F)c1 (stereo unspecified) [Bicalutamide] (1 nM)', '%', 110),
  ('Cn1cc(C2=C(c3cn(C4CCN(Cc5ccccn5)CC4)c4ccccc34)C(=O)NC2=O)c2ccccc21 [Enzastaurin] (1 nM)', '%', 114),
  ('CCNC(=O)c1noc(-c2cc(C(C)C)c(O)cc2O)c1-c1ccc(CN2CCOCC2)cc1 [NVP-AUY922] (0.1 nM)', '%', 99.5),
  ('CO[C@@]12[C@H](COC(N)=O)C3=C(C(=O)C(C)=C(N)C3=O)N1C[C@@H]1N[C@@H]12 [Mitomycin C] (1 nM)', '%', 110);
